# assay.comment: Plasma pharmacokinetics of esomeprazole and esomeprazole sulfone in goats after IV and SC administration (HPLC, non-compartmental analysis)
# setup.conditions: both, pygmy and pygmy-cross, plasma, iv, 1 mg/kg, MRTinf, goats, 1 mg/kg IV single dose, geomean, n = 5
measured.quantity: MRT inf (min)

* COc1ccc2nc([S@@+]([O-])Cc3ncc(C)c(OC)c3C)[nH]c2c1 [Esomeprazole, esomeprazole] | 9.19

* * *

# assay.comment: Plasma pharmacokinetics of esomeprazole and esomeprazole sulfone in goats after IV and SC administration (HPLC, non-compartmental analysis)
# setup.conditions: both, pygmy and pygmy-cross, plasma, iv, 1 mg/kg, λz, goats, 1 mg/kg IV single dose, median, n = 5
measured.quantity: k el

* COc1ccc2nc([S@@+]([O-])Cc3ncc(C)c(OC)c3C)[nH]c2c1 [Esomeprazole, esomeprazole] | 0.00183 s⁻¹
